- SYSTEM_UNDER_TEST: T1, IL-13RA2 huFc (human)
- T1 construct: Expressed in 293F cells, purified on protein A; also called human IL13RA2; recombinant IL-13RA2
- TEST_SUMMARY: SPR (Biacore), induced scFv supernatant; column head: Dissociation constant Kd(S-1)
koff values, listed per item
Number first, unit second.

1. 2C7 (scFv) (scFv, also called clone 2C7) scFv: EVQLLESGGGLVQPGGSLRLSCAASGFTFKLPAMSWVRQAPGKGLEWVSAITGSGGSTYYADSVKGRFTISRDNSKNTLYLQMNSLRAEDTAVYYCAKVRYGWGAGAFDYWGQGTLVTVSSGGGGSGGGGSGGGGSDIQMTQSPSTLSASVGDRVTITCRASQSISSWLAWYQQKPGKAPKLLIYDASSLESGVPSRFSGSGSGTEFTLTISSLQPDDFATYYCQQYDTYPPITFGQGTKVEIK | 0.000501 s⁻¹

Look at this binder and give its reported koff. 1D11 (scFv) (scFv, also called clone 1D11) scFv: EVQLLESGGGLVQPGGSLRLSCAASGFTFGTIPMSWVRQAPGKGLEWVSSISGSAGSTYYADSVKGRFTISRDNSKNTLYLQMNSLRAEDTAVYYCAKVRYGWGAGAFDYWGQGTLVTVSSGGGGSGGGGSGGGGSDIQMTQSPSTLSASVGDRVTITCRASQSISSWLAWYQQKPGKAPKLLIYDASSLESGVPSRFSGSGSGTEFTLTISSLQPDDFATYYCQQYDTYPPITFGQGTKVEIK
0.000677 s⁻¹
